# System: HL-60
# TEST NAME: NCI tumour cell line growth inhibition, 48 h
Calls of active or inactive are those of the source. Rule as the data show it: active = GI50 up to about 1.1 µM and inactive = higher.
Answer each item with its documented GI50.

Give GI50 for each of the items listed below.
1. C#CCOCn1cnc2c(Sc3c([N+](=O)[O-])ncn3C)ncnc21
2. O=C(Nc1ccccc1)c1cc2c(cc1Cl)SC(NNCCO)=NS2(=O)=O
3. O=C1CN=C(c2ccccc2)c2ccncc2N1
4. Cc1ccc(-c2c(C#N)c(-c3ccc([N+](=O)[O-])cc3)c(C#N)c(=O)n2NS(=O)(=O)c2ccc(C)cc2)cc1
5. CCC(=O)Nc1ccc(N2C(=O)C(Cl)C2c2ccc(SC)cc2)cc1 (stereo not given)

Resp:
1. > 100 µM (inactive)
2. > 100 µM (inactive)
3. > 100 µM (inactive)
4. 31.3 µM (inactive)
5. 78.3 µM (inactive)

###

# Test system: HT-29
# TEST NAME: NCI tumour cell line growth inhibition, 48 h
The source made the active and inactive calls. No stated cut-off is given here; in the data, active = GI50 up to about 1.1 µM and inactive = higher.
The reply should name one outcome from Y = active, N = inactive

Solved entries:
MOLECULE	LABEL
COC(=O)/C=C(\S/C=C(/c1ccccc1)N1CCn2c(C(=O)c3ccccc3)c(C(=O)OC)c(C(=O)OC)c21)C(=O)OC	N
CC1=C(/C=C/C(C)=C/C=C/C(C)=C/C(=O)O)C(C)(C)CCC1 [TRETINOIN]	N
C#CCNC(=O)NC(CCCCNC(=O)OCc1ccccc1)C(=O)OCc1ccccc1 (stereo unspecified)	N
O=C1CC(c2c(-c3ccccc3)[nH]c3ccccc23)C(=O)N1 (stereo unspecified)	N
COc1cccc(/C=C2\C(=O)N(C(=O)c3ccc(NC(C)=O)cc3)N=C2C)c1	N
CCCCn1c(O)nc2c(N)ncnc21	N
O=C1CNC(=O)N1 [HYDANTOIN]	N
O=C(O)C/C(=C\c1ccco1)C(=O)O	N
CCOC(=O)C(=O)NNc1nc2c(s1)C(=O)c1ccccc1C2=O	N
Cc1ccc(NCCCN2CCN(CCCNc3ccc(C)c4sc5ccccc5c(=O)c34)CC2)c2c(=O)c3ccccc3sc12	N

Req: Which result was noted for this molecule in the test: "CC(C)C[C@H](NC(=O)[C@H](Cc1ccc(F)cc1)NC(=O)c1ccccn1)B(O)O"
Resp: Y

Req: // outcome(item) with item = NC(=O)c1ncn(C2C=CC(CP(=O)(O)O)C2)c1N (stereo unspecified)
Resp: N

Req: So what was the verdict on "Cc1c2cc[n+](C)cc2c(C)c2c1[nH]c1ccccc12" in this test?
Resp: N

Req: How was "CCN(CC)Cc1nc2sc3c(c2c(=O)n1-c1ccccc1)CCCC3" classified in this test?
Resp: N

Req: Tell me the assay call for "Cc1ccccc1C(=O)NC(O)(C(F)(F)F)C(F)(F)F" please.
Resp: N

Req: What classification did COc1cc(/C=C2\CC(C)C/C(=C\c3ccc(O)c(OC)c3)C2=O)ccc1O (stereo unspecified) end up with in this test?
Resp: N

Req: Dear all, I need the recorded test outcome for CC(=O)NCC1OC2COC(c3ccccc3)OC2C(NC(=O)c2ccccc2)C1OC(=O)c1ccccc1 (stereo unspecified) , thank you.
Resp: N

###

# Test system: HCT-116
# TEST NAME: NCI tumour cell line growth inhibition, 48 h
Calls of active or inactive are those of the source. Cut-off read from the data, not from the text of the source: active = GI50 up to about 1.1 µM and inactive = higher.
Write down one outcome, taken from active, inactive

Previously resolved entries follow.
COMPOUND	LABEL
CCc1nc(N)nc(N)c1-c1ccc(N(C)Cc2ccccc2)c([N+](=O)[O-])c1	active
CC(=O)/C=C1\Nc2ccccc2N\C1=C/C(C)=O	inactive
N#Cc1c(C#N)c(-c2ccccc2)n(/N=C\c2ccccc2)c1N	inactive
Cc1ccc(C2(O)CC(c3ccc([N+](=O)[O-])o3)=NN2C(=O)COc2ccccc2Cl)cc1 (stereo unspecified)	inactive
Nc1nc2c(ncn2C2CCC(CO)O2)c(=O)n1C(=O)c1ccccc1 (stereo unspecified)	inactive
CC(C)NC(=O)OCc1c2c(n(C)c1COC(=O)NC(C)C)-c1ccccc1CC2	inactive

Req: How was C/C(=N\O)C(CN(C)C)C(c1ccccc1)c1c(O)c2ccccc2oc1=O (stereo unspecified) classified in this test?
Resp: inactive

Req: How was OC(c1cc(-c2ccc(Cl)cc2)nc2ccccc12)C1CCCCN1 (stereo unspecified) classified in this test?
Resp: inactive

Req: Recorded test call requested for O=C1c2ccccc2C2C1C(c1ccccc1)C1(Cc3ccccc3C1=O)C2c1ccccc1 (stereo unspecified)
Resp: inactive

Req: What outcome does the record of this test show for CCOC(=O)C1OC(C2(C)OC3(OC4(C=CC3O)OC(C(C)C(=O)C(C)C(O)C(C)CC(C)c3c(Cl)cc(C)c(O)c3C(=O)O)C(C)CC4C)C(C)C2OC)CC1O (stereo unspecified) ?
Resp: active

Req: # lookup: test call for "Clc1ccc(Cl)c2[s+]snc12"
Resp: inactive

Req: Any idea what this test logged for "N[C@H]1c2c(Br)sc(Br)c2C(=O)[C@H]1O" ?
Resp: inactive

Req: Just curious, what result did "O=C(Cc1nc2ccc(C(=O)c3ccccc3)cc2nc1O)C(=O)Nc1ccc(C(F)(F)F)cc1[N+](=O)[O-]" get here?
Resp: inactive

Req: Tell me the assay call for "O=C1CN=C(c2ccccc2)c2ccncc2N1" please.
Resp: inactive

Req: Dear all, I need the recorded test outcome for "CC(C)(Br)C(=O)C(Br)Br" , thank you.
Resp: inactive

Req: Call for entry COC(=O)C1CC(C=[N+](C)C)=C(SC)N1 (stereo unspecified) :
Resp: inactive

Req: How did this test come out for "c1cc(CCN2CCCCC2)ccn1" ?
Resp: inactive

Req: Could you check what this test reported for "N#CCCN(CCC#N)c1ccc(C(=N/c2ccc(F)cc2)/N=N/c2ccc(Cl)cc2)cc1" ?
Resp: inactive

Req: State the result this test recorded for CC(C(=O)c1ccc(O)cc1)C1(O)C(=O)Nc2c(Cl)cc(Cl)cc21 (stereo unspecified) .
Resp: inactive

Req: What did the test return for O=C1C(=C(C(F)(F)Cl)C(F)(F)Cl)C2CCC1C2 (stereo unspecified) ?
Resp: inactive

Req: Per the assay record, what outcome was assigned to "Nc1ccc(CCSSCCc2ccc(N)cc2)cc1" ?
Resp: inactive

Req: Per the assay record, what outcome was assigned to "C/C1=C\[C@H](C)C[C@H](C)OC(=O)C[C@H](c2ccc(O)cc2)NC(=O)[C@H](Cc2ccc(O)c(Br)c2)N(C)C(=O)[C@H](C)NC(=O)[C@@H](C)C1" ?
Resp: inactive

###

# System: SK-MEL-28
# TEST NAME: NCI tumour cell line growth inhibition, 48 h
Calls of active or inactive are those of the source. No stated cut-off is given here; in the data, active = GI50 up to about 1.1 µM and inactive = higher.
Provide the reported GI50 of each item.

// solved cases for GI50 follow
COMPOUND	RESULT
C#CCNC(=O)NC(CCCCNC(=O)OCc1ccccc1)C(=O)OCc1ccccc1 (stereo not drawn)	17.7 µM (inactive)
CCCCNC(=O)Cn1c2ccc(Br)cc2c2nc3ccccc3nc21	> 100 µM (inactive)
O=C1C(=C(C(F)(F)Cl)C(F)(F)Cl)C2CCC1C2 (stereo not drawn)	1.93 µM (inactive)
O=C(Cc1nc2ccc(C(=O)c3ccccc3)cc2nc1O)C(=O)Nc1ccc(C(F)(F)F)cc1[N+](=O)[O-]	82.6 µM (inactive)
COC(C(=O)C(O)C(C)O)C1CC2C=C3C=C(OC4CC(OC5CC(O)C(OC)C(C)O5)C(OC(C)=O)C(C)O4)C(C)C(O)=C3C(O)=C2C(=O)C1OC1CC(OC2CC(OC3CC(C)(O)C(OC(=O)C(C)C)C(C)O3)C(O)C(C)O2)C(O)C(C)O1 (stereo not drawn)	< 0.01 µM (active)
Nc1ccn(C2CCC(CO)O2)c(=O)n1 (stereo not drawn)	> 100 µM (inactive)
CC1CC[C@@]2(OC1)OC1C[C@H]3[C@@H]4CC=C5CC(OC6OC(CO)C(OC7OC(CO)C(O)C(OC8OCC(O)C(O)C8O)C7OC7OC(CO)C(OC8OC(C)C(OC9OC(C)C(O)C(O)C9O)C(O)C8O)C(O)C7O)C(O)C6O)CCC5(C)[C@H]4CCC3(C)C1[C@@H]2C (stereo partly drawn)	11.2 µM (inactive)

Next compound, please.
Req: Complete the entry with GI50 for "CCOC(=O)C(=O)NNc1nc2c(s1)C(=O)c1ccccc1C2=O"
Resp: 3.06 µM (inactive)

###

# Test system: HCC 2998
# TEST NAME: NCI tumour cell line growth inhibition, 48 h
Active and inactive are the calls of the source. Cut-off read from the data, not from the text of the source: active = GI50 up to about 1.1 µM and inactive = higher.
Would you mind answering with one of these outcomes? yes for active, no for inactive

Req: Identify the outcome logged in this assay for the compound shown: "O=C(Nc1ccccc1)c1cc2c(cc1Cl)SC(NNCCO)=NS2(=O)=O"
Resp: no

Req: What did this assay record as the result for "Nc1nc(-c2ccccc2)nc2oc(-c3cccs3)nc12" ?
Resp: no

Req: # fetch the recorded call for CCCOC1OC(CS(=O)(=O)O)C(OC(C)=O)C(OC(C)=O)C1OC(C)=O (stereo not given) here
Resp: no

Req: Identify the outcome logged in this assay for the compound shown: "COC(=O)C(=C\Sc1ccccc1)/C=C/C(=O)OC(C)(C)C"
Resp: no

Req: Which outcome did this test record for the compound CCC(=O)Nc1ccc(N2C(=O)C(Cl)C2c2ccc(SC)cc2)cc1 (stereo not given) ?
Resp: no

Req: Field: outcome | Entry: CC(=O)N1C(NN(C)C)CCN1c1ccccc1 (stereo not given)
Resp: no

Req: Kindly provide the recorded test outcome for the following compound: "O=C(O)CSc1ccc(N=C=S)cc1"
Resp: no

Req: Please indicate how the test categorized "Nc1nc(-c2cccc([N+](=O)[O-])c2)cc(-c2cc(-c3cccc([N+](=O)[O-])c3)nc(N)n2)n1" .
Resp: no

Req: Just curious, what result did N#Cc1ccc(C2NN=CC23C(=O)c2ccccc2OC3c2ccccc2)cc1 (stereo not given) get here?
Resp: no

Req: Recorded test outcome, item "Cc1ccc(NC(=O)CSc2nnc(Cc3ccccc3)o2)cc1"
Resp: no

Req: Hey, what did the test say about "CC(=O)Nc1ccc(S(=O)(=O)c2nnc(NC(C)=O)s2)cc1" ?
Resp: no

Req: Lab log entry: "CCOC(=O)C(=O)NNc1nc2c(s1)C(=O)c1ccccc1C2=O" — outcome as called in the assay?
Resp: no
